- System: HepG2
- Assay overview: Cytotoxicity against human HepG2 cells by SRB assay
- Assay type: cell-based
Quantity kind: Activity

Some compounds with known Activity results, for comparison:
Cc1cccc(Oc2ccc(-c3nc(N)nc(N)n3)cc2)c1; Non-toxic
CC(C)(C)c1ccc(Oc2ccc(-c3nc(N)nc(N)n3)cc2)cc1; Non-toxic
Cc1cc(Cl)ccc1Oc1ccc(-c2nc(N)nc(N)n2)cc1; Non-toxic
Nc1nc(N)nc(-c2ccc(Oc3ccc(Cl)cc3Cl)cc2)n1; Non-toxic
Cc1cc(Oc2ccc(-c3nc(N)nc(N)n3)cc2)cc(C)c1Cl; Non-toxic
Nc1nc(N)nc(-c2ccc(Oc3ccc(Br)cc3)cc2)n1; Non-toxic
COc1ccc(Oc2ccc(-c3nc(N)nc(N)n3)cc2)cc1; Non-toxic
Nc1nc(N)nc(-c2ccc(Oc3ccc(Cl)cc3)cc2)n1; Non-toxic

Consider the compound Cc1cccc(Oc2ccc(-c3nc(N)nc(N)n3)cc2)c1C and give its measured Activity. Non-toxic

Now consider Nc1nc(N)nc(-c2ccc(Sc3ccccc3)cc2)n1 . Non-toxic

Now consider Nc1nc(N)nc(-c2ccc(Oc3ccc(F)cc3)cc2)n1 . Non-toxic

###

MIC for assorted compounds
- Test system: Staphylococcus aureus
- Assay overview: Antimicrobial activity against Staphylococcus aureus
- Type: functional
I only need the number, in µM, no unit after it.

Nc1nc(N)nc(-c2ccc(Oc3ccc(Cl)cc3)cc2)n1; 398
Cc1cc(Cl)ccc1Oc1ccc(-c2nc(N)nc(N)n2)cc1; 381
Nc1nc(N)nc(-c2ccc(Sc3ccccc3)cc2)n1; 423

Next:
Consider the compound Nc1nc(N)nc(-c2ccc(Oc3ccc(Cl)cc3Cl)cc2)n1 and give its measured MIC. 359

###

- Target system: Dihydrofolate reductase (Homo sapiens, UniProt P00374)
- Sequence (P00374 whole entry): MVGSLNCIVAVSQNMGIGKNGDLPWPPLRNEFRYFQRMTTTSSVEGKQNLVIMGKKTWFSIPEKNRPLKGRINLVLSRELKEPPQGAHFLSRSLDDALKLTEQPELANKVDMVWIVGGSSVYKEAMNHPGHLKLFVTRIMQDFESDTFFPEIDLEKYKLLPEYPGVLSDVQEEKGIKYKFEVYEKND
Quantity kind: pIC50
Note: pIC50 values are expressed as the negative base-10 logarithm of concentration in M.

Consider the compound Cc1cccc(Oc2ccc(-c3nc(N)nc(N)n3)cc2)c1C and give its measured pIC50. 4.38

###

- System: Staphylococcus aureus
- Assay overview: Antimicrobial activity against Staphylococcus aureus
- Assay type: functional
Consider the cut-off 400 µM. If the recorded MIC is strictly smaller, the label is y; if not, the label is n.

Example cases with answers are listed next.
Cc1ccc(Oc2ccc(-c3nc(N)nc(N)n3)cc2)cc1; n
Nc1nc(N)nc(-c2ccc(Oc3ccc(F)cc3)cc2)n1; n
Nc1nc(N)nc(-c2ccc(Oc3ccccc3)cc2)n1; n
Nc1nc(N)nc(-c2ccc(Oc3ccc(Br)cc3)cc2)n1; y

Now for a further compound.
Determine whether this compound shows MIC lower than 400 µM (ties excluded): CC(C)(C)c1ccc(Oc2ccc(-c3nc(N)nc(N)n3)cc2)cc1 y

###

- System: Mycobacterium tuberculosis
- Assay overview: Antimycobacterium activity against Mycobacterium tuberculosis H37Ra at dormant stage at 10 ug/ml
- Type: functional
Quantity kind: inhibition at 10 µg/mL (%)
I only need the number, in %, no unit after it.

Some compounds with known inhibition at 10 µg/mL results, for comparison:
Nc1nc(N)nc(-c2ccc(Oc3ccc(Cl)cc3Cl)cc2)n1; 93.6
Cc1cc(Oc2ccc(-c3nc(N)nc(N)n3)cc2)ccc1Cl; 7.27

API: value(readout= inhibition at 10 µg/mL, system= Mycobacterium tuberculosis, query= Cc1cccc(C)c1Oc1ccc(-c2nc(N)nc(N)n2)cc1 ) 96.9
